- system_tested: Solute carrier organic anion transporter family member 1B1 (Homo sapiens)
- Sequence (Q9Y6L6 whole entry): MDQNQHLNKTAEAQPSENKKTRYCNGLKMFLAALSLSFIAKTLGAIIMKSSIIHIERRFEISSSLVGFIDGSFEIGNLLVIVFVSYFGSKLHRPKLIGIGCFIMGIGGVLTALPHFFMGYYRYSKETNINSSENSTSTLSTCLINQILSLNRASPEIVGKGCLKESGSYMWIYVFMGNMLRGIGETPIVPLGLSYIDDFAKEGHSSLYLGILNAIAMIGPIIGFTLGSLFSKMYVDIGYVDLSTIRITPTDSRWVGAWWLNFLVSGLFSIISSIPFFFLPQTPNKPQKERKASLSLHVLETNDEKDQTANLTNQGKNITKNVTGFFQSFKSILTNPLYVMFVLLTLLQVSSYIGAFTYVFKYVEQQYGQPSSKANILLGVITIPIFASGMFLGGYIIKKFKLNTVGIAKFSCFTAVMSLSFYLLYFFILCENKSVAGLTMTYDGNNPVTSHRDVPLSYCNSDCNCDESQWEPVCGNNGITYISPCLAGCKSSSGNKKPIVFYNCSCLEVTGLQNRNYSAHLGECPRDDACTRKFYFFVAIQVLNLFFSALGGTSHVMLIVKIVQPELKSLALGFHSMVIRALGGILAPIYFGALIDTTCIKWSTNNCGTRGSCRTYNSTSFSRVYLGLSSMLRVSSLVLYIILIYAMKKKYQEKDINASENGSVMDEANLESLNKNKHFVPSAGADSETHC
- assay_protocol: Inhibition of human liver OATP1B1 expressed in HEK293 Flp-In cells assessed as reduction in E17-betaG uptake at 20 uM by scintillation counting
- measurement_context: hek293, 20 µM
Define the label as YES when INH is strictly less than 20% and as NO in all remaining cases.

Cc1cccc(C)c1NC(=O)CC12CCCN1CCC2 [PILSICAINIDE]    YES

Q: Is INH strictly under 20% for the entry CCC1(c2ccccc2)C(=O)NC(=O)NC1=O ?
Result: YES

Q: What do you have for CN(C)C(=O)CCSC(SCCC(=O)O)c1cccc(/C=C/c2ccc3ccc(Cl)cc3n2)c1 (stereo not given) ?
Result: NO

Q: What do you have for C[C@H](Cn1cnc2c(N)ncnc21)OCP(=O)(O)O [TENOFOVIR ANHYDROUS] ?
Result: YES

Q: What do you have for O=c1c(-c2ccc(O)cc2)coc2cc(O)cc(O)c12 ?
Result: NO

Q: What do you have for CC(C)Cc1ccc(C(C)C(=O)O)cc1 (stereo not given) ?
Result: NO

----------
- system_tested: Solute carrier organic anion transporter family member 2B1 (Homo sapiens, UniProt O94956)
- Sequence (O94956 whole entry): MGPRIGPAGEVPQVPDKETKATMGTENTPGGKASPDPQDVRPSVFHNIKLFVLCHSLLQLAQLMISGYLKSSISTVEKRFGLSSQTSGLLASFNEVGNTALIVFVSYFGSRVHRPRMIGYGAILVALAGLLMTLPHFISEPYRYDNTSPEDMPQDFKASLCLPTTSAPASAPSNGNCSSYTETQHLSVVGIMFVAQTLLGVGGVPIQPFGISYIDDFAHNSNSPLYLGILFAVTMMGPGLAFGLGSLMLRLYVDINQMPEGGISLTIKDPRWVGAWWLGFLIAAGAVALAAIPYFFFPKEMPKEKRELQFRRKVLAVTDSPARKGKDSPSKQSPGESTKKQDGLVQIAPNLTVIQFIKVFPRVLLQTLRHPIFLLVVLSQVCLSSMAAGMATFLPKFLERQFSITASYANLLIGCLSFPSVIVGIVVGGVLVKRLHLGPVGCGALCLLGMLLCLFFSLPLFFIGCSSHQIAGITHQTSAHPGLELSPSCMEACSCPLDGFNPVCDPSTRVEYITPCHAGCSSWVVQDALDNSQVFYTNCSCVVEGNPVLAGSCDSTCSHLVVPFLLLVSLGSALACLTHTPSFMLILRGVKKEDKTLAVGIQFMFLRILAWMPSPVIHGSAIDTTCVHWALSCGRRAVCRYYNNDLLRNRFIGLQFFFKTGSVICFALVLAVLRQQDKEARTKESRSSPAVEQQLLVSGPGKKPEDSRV
- assay_protocol: Inhibition of human liver OATP2B1 expressed in HEK293 Flp-In cells assessed as reduction in [3H]E3S uptake at 20 uM incubated for 5 mins by scintillation counting
- measurement_context: hek293, 5 min
Define the label as satisfied when INH is strictly less than 30% and as not satisfied in all remaining cases.

Use these answered entries as a reference point.
Cc1nccn1CC1CCc2c(c3ccccc3n2C)C1=O (stereo not given)    satisfied
CC(=O)N1CCN(c2ccc(OCC3COC(Cn4ccnc4)(c4ccc(Cl)cc4Cl)O3)cc2)CC1 (stereo not given)    not satisfied

Q: Is INH strictly under 30% for the entry CC1COc2c(N3CCN(C)CC3)c(F)cc3c(=O)c(C(=O)O)cn1c23 (stereo not given) ?
Result: satisfied

Q: What do you have for O=C1C[C@@H](c2ccc(O)cc2)Oc2cc(O)cc(O)c21 ?
Result: not satisfied

Q: What do you have for CCC1(c2ccccc2)NC(=O)N(C)C1=O (stereo not given) ?
Result: not satisfied

----------
- system_tested: UniProt:Q9NPD5
- Sequence (Q9NPD5 whole entry): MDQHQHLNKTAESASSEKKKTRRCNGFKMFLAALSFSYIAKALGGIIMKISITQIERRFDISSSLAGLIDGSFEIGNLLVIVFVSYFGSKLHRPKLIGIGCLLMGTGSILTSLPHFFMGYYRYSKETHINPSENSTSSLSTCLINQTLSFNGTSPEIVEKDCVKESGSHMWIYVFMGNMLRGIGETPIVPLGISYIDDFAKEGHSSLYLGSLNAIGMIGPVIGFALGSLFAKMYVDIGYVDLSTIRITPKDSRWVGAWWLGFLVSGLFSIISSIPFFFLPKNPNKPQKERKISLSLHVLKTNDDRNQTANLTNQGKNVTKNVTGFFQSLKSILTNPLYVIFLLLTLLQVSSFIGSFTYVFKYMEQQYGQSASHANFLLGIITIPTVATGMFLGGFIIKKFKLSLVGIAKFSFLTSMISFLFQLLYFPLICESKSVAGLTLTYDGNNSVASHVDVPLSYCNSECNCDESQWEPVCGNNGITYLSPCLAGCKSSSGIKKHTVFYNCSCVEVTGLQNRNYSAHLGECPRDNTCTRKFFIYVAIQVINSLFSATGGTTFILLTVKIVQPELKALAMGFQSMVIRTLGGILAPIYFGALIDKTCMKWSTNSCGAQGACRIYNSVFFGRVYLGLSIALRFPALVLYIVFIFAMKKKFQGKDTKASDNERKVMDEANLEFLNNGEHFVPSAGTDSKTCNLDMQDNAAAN
- assay_protocol: Inhibition of human liver OATP1B3 expressed in HEK293 Flp-In cells assessed as reduction in [3H]E17-betaG uptake at 20 uM incubated for 5 mins by scintillation counting
- measurement_context: hek293, 5 min
Consider the following compounds; for each one, report its INH.
Answer with the figure and its unit, nothing else.

Would you please look over these solved cases?
CCC1(c2ccccc2)NC(=O)N(C)C1=O (centres undefined)    -0.6%
CC1COc2c(N3CCN(C)CC3)c(F)cc3c(=O)c(C(=O)O)cn1c23 (centres undefined)    24.5%

The following compounds each have a reported value; give each one's INH.
1. O=C(NCCN1CCOCC1)c1ccc(Cl)cc1 [MOCLOBEMIDE]
2. O=C1OC(c2ccc(O)c(S(=O)(=O)[O-])c2)(c2ccc(O)c(S(=O)(=O)[O-])c2)c2c(Br)c(Br)c(Br)c(Br)c21.[Na+].[Na+] [SULFOBROMOPHTHALEIN SODIUM]
3. Cc1cn([C@H]2C[C@H](N=[N+]=[N-])[C@@H](CO)O2)c(=O)[nH]c1=O
4. Cc1ccc(-c2cc(C(F)(F)F)nn2-c2ccc(S(N)(=O)=O)cc2)cc1

Result:
-3.3%
74.9%
7.1%
22.3%

The following compounds each have a reported value; give each one's INH.
1. Nc1nnc(-c2cccc(Cl)c2Cl)c(N)n1
2. COc1ccnc(C[S+]([O-])c2nc3ccc(OC(F)F)cc3[nH]2)c1OC (centres undefined)
3. C[n+]1ccccc1

Result:
14.5%
23.4%
-2.3%

----------
- system_tested: Solute carrier organic anion transporter family member 1B1 (Homo sapiens, UniProt Q9Y6L6)
- assay_protocol: Inhibition of human liver OATP1B1 expressed in HEK293 Flp-In cells assessed as reduction in E17-betaG uptake at 20 uM by scintillation counting
- measurement_context: hek293, 20 µM
experimental_endpoint: INH

C#Cc1cccc(Nc2ncnc3cc(OCCOC)c(OCCOC)cc23)c1    10.6%
CN(Cc1cnc2nc(N)nc(N)c2n1)c1ccc(C(=O)N[C@@H](CCC(=O)O)C(=O)O)cc1 [METHOTREXATE]    27.4%
CCOc1nc2cccc(C(=O)O)c2n1Cc1ccc(-c2ccccc2-c2nnn[nH]2)cc1    52.1%
Cc1c(OCC(F)(F)F)ccnc1C[S+]([O-])c1nc2ccccc2[nH]1 (stereo not given)    31.4%

The following molecules each have a reported value; give each one's INH.
1. Clc1ccccc1CN1CCc2sccc2C1
2. COc1ccc2c(c1)c(CC(=O)O)c(C)n2C(=O)c1ccc(Cl)cc1
3. Nc1nc(=O)n([C@@H]2CS[C@H](CO)O2)cc1F
4. CC1(C)C(/C=C/C=C/C=C/C=C2/N(CCCCS(=O)(=O)[O-])c3ccc4ccccc4c3C2(C)C)=[N+](CCCCS(=O)(=O)[O-])c2ccc3ccccc3c21.[Na+]
5. C[C@H](CCC(=O)O)[C@H]1CC[C@H]2[C@@H]3[C@H](O)C[C@@H]4C[C@H](O)CC[C@]4(C)[C@H]3C[C@H](O)[C@]12C

Result:
["19.4%", "88.6%", "6.4%", "86.1%", "41.6%"]

The following molecules each have a reported value; give each one's INH.
1. CC(=O)S[C@@H]1CC2=CC(=O)CC[C@]2(C)[C@H]2CC[C@@]3(C)[C@@H](CC[C@@]34CCC(=O)O4)[C@H]12
2. Cc1c(O)cccc1C(=O)N[C@@H](CSc1ccccc1)[C@H](O)CN1C[C@H]2CCCC[C@H]2C[C@H]1C(=O)NC(C)(C)C
3. CC[C@H]1OC(=O)[C@H](C)[C@@H](O[C@H]2C[C@@](C)(OC)[C@@H](O)[C@H](C)O2)[C@H](C)[C@@H](O[C@@H]2O[C@H](C)C[C@H](N(C)C)[C@H]2O)[C@](C)(O)C[C@@H](C)C(=O)[C@H](C)[C@@H](O)[C@]1(C)O
4. O=C(NCCN1CCOCC1)c1ccc(Cl)cc1 [MOCLOBEMIDE]
5. Cn1c(=O)c2[nH]cnc2n(C)c1=O.O
6. CC(C)C[C@H](NC(=O)[C@@H](O)[C@H](N)Cc1ccccc1)C(=O)O

Result:
1. 88.3%
2. 71.3%
3. 58.8%
4. 1.7%
5. 0.8%
6. 10.9%

----------
- system_tested: Solute carrier organic anion transporter family member 1B1 (Homo sapiens)
- Sequence (Q9Y6L6 whole entry): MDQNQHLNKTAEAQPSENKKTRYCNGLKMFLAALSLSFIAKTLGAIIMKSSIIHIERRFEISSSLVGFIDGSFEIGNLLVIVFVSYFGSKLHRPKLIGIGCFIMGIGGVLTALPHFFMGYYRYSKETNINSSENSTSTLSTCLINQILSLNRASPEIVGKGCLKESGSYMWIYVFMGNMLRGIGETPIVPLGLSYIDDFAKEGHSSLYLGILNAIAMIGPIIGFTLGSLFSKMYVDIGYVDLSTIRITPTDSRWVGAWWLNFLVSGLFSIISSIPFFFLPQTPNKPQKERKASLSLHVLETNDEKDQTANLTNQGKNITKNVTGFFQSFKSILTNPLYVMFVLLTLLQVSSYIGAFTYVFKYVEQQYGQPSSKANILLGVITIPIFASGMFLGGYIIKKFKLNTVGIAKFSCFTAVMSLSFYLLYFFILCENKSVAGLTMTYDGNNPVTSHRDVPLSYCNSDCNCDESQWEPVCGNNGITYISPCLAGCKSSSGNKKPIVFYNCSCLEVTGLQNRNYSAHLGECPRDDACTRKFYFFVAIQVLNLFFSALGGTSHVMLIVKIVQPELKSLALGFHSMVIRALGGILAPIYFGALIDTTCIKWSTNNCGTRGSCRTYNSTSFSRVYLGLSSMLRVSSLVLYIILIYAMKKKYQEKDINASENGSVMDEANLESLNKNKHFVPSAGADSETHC
- assay_protocol: Inhibition of human liver OATP1B1 expressed in HEK293 Flp-In cells assessed as reduction in E17-betaG uptake at 20 uM by scintillation counting
- measurement_context: hek293, 20 µM
Consider the following molecules; for each one, report its INH.
Answer with the figure and its unit, nothing else.

Nc1nc2c(ncn2COCCO)c(=O)[nH]1    2.3%
CN1CCC[C@@H]1Cc1c[nH]c2ccc(CCS(=O)(=O)c3ccccc3)cc12    31.7%
COC(=O)N[C@H](C(=O)N[C@@H](Cc1ccccc1)[C@@H](O)CN(Cc1ccc(-c2ccccn2)cc1)NC(=O)[C@@H](NC(=O)OC)C(C)(C)C)C(C)(C)C    95%

The following molecules each have a reported value; give each one's INH.
1. CC1(C)S[C@@H]2[C@H](NC(=O)Cc3ccccc3)C(=O)N2[C@H]1C(=O)O
2. C[C@H](CCC(=O)NCCS(=O)(=O)O)[C@H]1CC[C@H]2[C@@H]3[C@H](O)C[C@@H]4C[C@H](O)CC[C@]4(C)[C@H]3CC[C@]12C [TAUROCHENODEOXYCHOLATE]
3. CO[C@H]1/C=C/O[C@@]2(C)Oc3c(C)c(O)c4c(O)c(cc(O)c4c3C2=O)NC(=O)/C(C)=C\C=C\[C@H](C)[C@H](O)[C@@H](C)[C@@H](O)[C@@H](C)[C@H](OC(C)=O)[C@@H]1C
4. S=P(N1CC1)(N1CC1)N1CC1

Result:
8.8%
89.5%
95.4%
-40.3%
